// Latency lookup, one value per entry
Tested on: KM mice
Assay: Test for drug-induced disappearance of righting reflex in mice
Type: in vivo
Conditions: 30 mg/kg, single rapid bolus via tail vein
A complete answer gives the number and then names the unit.

Below are worked cases with known answers.
Task: Consider the molecule `COC(=O)CC[C@@H]1N=C(c2ccccc2Cl)c2cc(Br)ccc2-n2c(SCCN3CCN(C)CC3)nnc21` and give its recorded Latency.
Result: 1.80 min

Task: Return value of Latency for input `COC(=O)CC[C@H]1N=C(c2ccccc2Cl)c2cc(Cl)ccc2-n2c(SCCN3CCC(O)CC3)nnc21` , no commentary.
Result: 0.22 min

Task: Report measured Latency; entry is `CCCSc1nnc2n1-c1ccc([N+](=O)[O-])cc1C(c1ccccc1Cl)=N[C@H]2CCC(=O)OC`
Result: 2.85 min

Shifting focus to the molecule that follows.
Task: Give the measured Latency for `C#CCSc1nnc2n1-c1ccc(Cl)cc1C(c1ccccc1Cl)=N[C@H]2CCC(=O)OC`
Result: 1.05 min
